measured_on: T1, human Natriuretic Peptide Receptor 1 (hNPR1) (human, UniProt P16066 33-473, limits assumed)
T1 construct: pannings used NPR1-hFc; also called NPR1-hFc
T1 sequence: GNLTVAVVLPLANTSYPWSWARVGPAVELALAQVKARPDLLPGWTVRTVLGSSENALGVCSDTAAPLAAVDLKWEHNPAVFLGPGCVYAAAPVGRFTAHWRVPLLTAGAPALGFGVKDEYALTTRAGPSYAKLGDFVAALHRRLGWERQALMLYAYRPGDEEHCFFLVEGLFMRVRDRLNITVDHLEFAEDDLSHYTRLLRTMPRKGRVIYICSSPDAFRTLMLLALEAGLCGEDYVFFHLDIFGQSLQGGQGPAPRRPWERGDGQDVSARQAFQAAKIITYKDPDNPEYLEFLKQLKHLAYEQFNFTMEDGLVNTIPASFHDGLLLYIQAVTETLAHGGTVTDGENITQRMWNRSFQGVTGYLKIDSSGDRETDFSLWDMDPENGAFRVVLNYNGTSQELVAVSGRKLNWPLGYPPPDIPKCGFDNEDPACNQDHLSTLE
assay_details: SET, FabCys
experimental_endpoint: Kd (nM)
All answers are understood in nM, so give the number only.

XX03 (FabCys format) (Fab, V domains shown, Monovalent FabCys) VH: EVQLLESGGGLVQPGGSLRLSCAASGFTFSSYWMNWVRQAPGKGLEWVSVIESKGNYIFYADSVKGRFTISRDNSKNTLYLQMNSLRAEDTAVYYCARDRYSMIYSYGAGAFDYWGQGTLVTVSS VL: DIQMTQSPSSLSASVGDRVTITCRASQGISSYLAWYQQKPGKAPKLLIYTASTLQSGVPSRFSGSGSGTDFTLTISSLQPEDFATYYCMQSYEKPRTFGQGTKVEIK | 22

In the following, a different binder is considered.
Req: Fill blank: measured Kd of the binder XX07 (FabCys format) (Fab, V domains shown, Monovalent FabCys) VH: QVQLLESGGGLVQPGGSLRLSCAASGFTFSSYWMNWVRQAPGKGLEWVSAISSDGSYTYYADSVKGRFTISRDNSKNTLYLQMNSLRAEDTAVYYCARDRYSMIYSYGAGAFDYWGQGTLVTVSS VL: DIQMTQSPSSLSASVGDRVTITCRASQGISSYLAWYQQKPGKAPKLLIYTASTLQSGVPSRFSGSGSGTDFTLTISSLQPEDFATYYCQQIWTVPRTFGQGTKVEIK is ____.
Resp: 21

Data origin, for the record: patent US20240052042A1
